Listed here: items and their measured GI50.
Tested on: RPMI-8226 leukemia
Test method notes: NCI tumour cell line growth inhibition, 384-well format

GI50 measured on "CN1CCN(c2ccc(Nc3cc(-c4cccc(-n5ccc6cc(C7CC7)cc(F)c6c5=O)c4CO)cn(C)c3=O)nc2)CC1" = 2060 nM

GET /value?item= "CC(C)(/C=C(\C#N)C(=O)N1CCC[C@@H](n2nc(-c3ccc(Oc4ccccc4)cc3F)c3c(N)ncnc32)C1)N1CCN(C2COC2)CC1" &field=GI50 returns 1140 nM

Memo: "O=C(NC[C@H](O)CN1CCc2ccccc2C1)c1cc(NC2COC2)ncn1" , reported GI50: > 47700 nM

Item: "CC1=CC(=O)C=CC1=Nc1ccc(N(C)C)cc1" | GI50: 1760 nM

---

System: TK-10 renal
Test method notes: NCI tumour cell line growth inhibition, 384-well format
Recorded endpoint: TGI

Illustrative cases are given below, each with its answer.
1. CN1CCN(c2ccc(Nc3cc(-c4cccc(-n5ccc6cc(C7CC7)cc(F)c6c5=O)c4CO)cn(C)c3=O)nc2)CC1 ... 5.77 µM
2. CN(C)CC[C@H](CSc1ccccc1)Nc1ccc(S(=O)(=O)NC(=O)c2ccc(N3CCN(Cc4ccccc4-c4ccc(Cl)cc4)CC3)cc2)cc1[N+](=O)[O-] ... 4.79 µM
3. O=C(NC[C@H](O)CN1CCc2ccccc2C1)c1cc(NC2COC2)ncn1 ... > 100 µM

Given item "CC1=CC(=O)C=CC1=Nc1ccc(N(C)C)cc1" , the value recorded as its TGI is 22.6 µM

---

Tested on: NCI-H522 lung
Test method notes: NCI tumour cell line growth inhibition, 384-well format; in the data active = GI50 below about 0.43 µM; inactive = the rest
Your reply should match one of these outcome classes. 1 for active, -1 for inactive

Here's what some known entries look like.
1) CN1CCN(c2ccc(Nc3cc(-c4cccc(-n5ccc6cc(C7CC7)cc(F)c6c5=O)c4CO)cn(C)c3=O)nc2)CC1 ... -1
2) CC(C)(/C=C(\C#N)C(=O)N1CCC[C@@H](n2nc(-c3ccc(Oc4ccccc4)cc3F)c3c(N)ncnc32)C1)N1CCN(C2COC2)CC1 ... 1
3) CN(C)CC[C@H](CSc1ccccc1)Nc1ccc(S(=O)(=O)NC(=O)c2ccc(N3CCN(Cc4ccccc4-c4ccc(Cl)cc4)CC3)cc2)cc1[N+](=O)[O-] ... -1

Problem: For this compound, state the assay outcome: "CC1=CC(=O)C=CC1=Nc1ccc(N(C)C)cc1"
Result: -1

---

Measured TGI accompanies every entry in the list below.
Tested on: NCI-H522 lung
Test method notes: NCI tumour cell line growth inhibition, 384-well format
Write it as a number; the unit µM goes unstated.

Would you please look over these solved cases?
1. CN(C)CC[C@H](CSc1ccccc1)Nc1ccc(S(=O)(=O)NC(=O)c2ccc(N3CCN(Cc4ccccc4-c4ccc(Cl)cc4)CC3)cc2)cc1[N+](=O)[O-] ... 60.7
2. CN1CCN(c2ccc(Nc3cc(-c4cccc(-n5ccc6cc(C7CC7)cc(F)c6c5=O)c4CO)cn(C)c3=O)nc2)CC1 ... 4.02

Shift focus to the following entry.
Summary line: "CC1=CC(=O)C=CC1=Nc1ccc(N(C)C)cc1" , NCI-H522 lung, reported TGI = 10.4

---

Test system: PC-3 prostate
Test method notes: NCI tumour cell line growth inhibition, 384-well format
Documented GI50 across a set of compounds

Completed entries (count: 3):
1) CC(C)(/C=C(\C#N)C(=O)N1CCC[C@@H](n2nc(-c3ccc(Oc4ccccc4)cc3F)c3c(N)ncnc32)C1)N1CCN(C2COC2)CC1 ... 3.73 µM
2) CN1CCN(c2ccc(Nc3cc(-c4cccc(-n5ccc6cc(C7CC7)cc(F)c6c5=O)c4CO)cn(C)c3=O)nc2)CC1 ... 3.78 µM
3) CC1=CC(=O)C=CC1=Nc1ccc(N(C)C)cc1 ... 3.22 µM

# evaluate next
Reported GI50 ( "O=C(NC[C@H](O)CN1CCc2ccccc2C1)c1cc(NC2COC2)ncn1" ) = > 100 µM

---

GI50 for assorted compounds
Test system: KM12 colon
Test method notes: NCI tumour cell line growth inhibition, 384-well format

Past entries and their recorded results:
1. CC1=CC(=O)C=CC1=Nc1ccc(N(C)C)cc1 ... 12.6 µM
2. O=C(NC[C@H](O)CN1CCc2ccccc2C1)c1cc(NC2COC2)ncn1 ... > 42.7 µM
3. CN1CCN(c2ccc(Nc3cc(-c4cccc(-n5ccc6cc(C7CC7)cc(F)c6c5=O)c4CO)cn(C)c3=O)nc2)CC1 ... 2.4 µM
4. CN(C)CC[C@H](CSc1ccccc1)Nc1ccc(S(=O)(=O)NC(=O)c2ccc(N3CCN(Cc4ccccc4-c4ccc(Cl)cc4)CC3)cc2)cc1[N+](=O)[O-] ... 2.05 µM

As a next step, examine the compound that follows.
Documented GI50 of "CC(C)(/C=C(\C#N)C(=O)N1CCC[C@@H](n2nc(-c3ccc(Oc4ccccc4)cc3F)c3c(N)ncnc32)C1)N1CCN(C2COC2)CC1" : 0.712 µM

Data credit: PubChem BioAssay (NCI)
